biological target: Histone deacetylase 5 (Homo sapiens, UniProt Q9UQL6); test: Inhibition of recombinant human HDAC5 using Ac-LGK(TFA)-AMC as substrate pre-incubated for 15 mins followed by substrate addition and measured after 60 mins by fluorescence based assay
Sequence (Q9UQL6 whole entry): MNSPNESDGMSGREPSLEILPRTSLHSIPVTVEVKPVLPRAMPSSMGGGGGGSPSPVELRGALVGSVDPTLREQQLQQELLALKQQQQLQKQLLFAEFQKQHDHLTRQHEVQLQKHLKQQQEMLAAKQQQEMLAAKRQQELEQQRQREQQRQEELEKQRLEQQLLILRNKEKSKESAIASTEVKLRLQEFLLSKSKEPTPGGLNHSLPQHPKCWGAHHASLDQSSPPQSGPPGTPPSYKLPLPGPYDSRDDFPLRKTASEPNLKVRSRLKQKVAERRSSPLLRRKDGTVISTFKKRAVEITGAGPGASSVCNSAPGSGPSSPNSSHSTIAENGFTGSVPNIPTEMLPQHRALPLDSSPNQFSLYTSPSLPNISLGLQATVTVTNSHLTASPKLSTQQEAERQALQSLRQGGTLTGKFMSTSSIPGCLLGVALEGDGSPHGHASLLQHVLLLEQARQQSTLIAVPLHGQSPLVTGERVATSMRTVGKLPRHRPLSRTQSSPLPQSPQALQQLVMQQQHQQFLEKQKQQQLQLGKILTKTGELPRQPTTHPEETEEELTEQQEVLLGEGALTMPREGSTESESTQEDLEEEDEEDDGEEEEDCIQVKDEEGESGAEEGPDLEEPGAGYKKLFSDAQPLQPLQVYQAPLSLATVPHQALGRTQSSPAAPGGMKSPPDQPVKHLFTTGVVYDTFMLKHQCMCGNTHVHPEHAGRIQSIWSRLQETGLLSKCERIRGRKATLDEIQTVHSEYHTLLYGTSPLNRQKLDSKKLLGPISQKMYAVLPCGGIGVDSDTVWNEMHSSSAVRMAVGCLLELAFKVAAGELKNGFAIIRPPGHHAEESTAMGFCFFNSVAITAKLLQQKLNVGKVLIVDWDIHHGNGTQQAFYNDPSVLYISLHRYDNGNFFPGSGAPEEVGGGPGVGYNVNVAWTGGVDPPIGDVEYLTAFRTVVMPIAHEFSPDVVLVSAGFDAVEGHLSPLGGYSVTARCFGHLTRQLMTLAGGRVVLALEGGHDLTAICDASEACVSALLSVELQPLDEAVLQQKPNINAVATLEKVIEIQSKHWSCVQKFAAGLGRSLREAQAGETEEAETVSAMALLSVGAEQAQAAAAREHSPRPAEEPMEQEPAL
measuredMetric: pIC50
// scale note: pIC50 = -log10(conc_M); give the bare number

q: # get_value(readout='pIC50', item= `CC(C)(CNC(=O)c1cccc(-c2noc(C(F)(F)F)n2)c1)c1coc(-c2ccccc2)n1` )
a: 6.67

Where do these numbers come from? They come from ChEMBL document CHEMBL4732198.
